Target: Acetylcholinesterase (Homo sapiens)
Sequence (P22303 whole entry): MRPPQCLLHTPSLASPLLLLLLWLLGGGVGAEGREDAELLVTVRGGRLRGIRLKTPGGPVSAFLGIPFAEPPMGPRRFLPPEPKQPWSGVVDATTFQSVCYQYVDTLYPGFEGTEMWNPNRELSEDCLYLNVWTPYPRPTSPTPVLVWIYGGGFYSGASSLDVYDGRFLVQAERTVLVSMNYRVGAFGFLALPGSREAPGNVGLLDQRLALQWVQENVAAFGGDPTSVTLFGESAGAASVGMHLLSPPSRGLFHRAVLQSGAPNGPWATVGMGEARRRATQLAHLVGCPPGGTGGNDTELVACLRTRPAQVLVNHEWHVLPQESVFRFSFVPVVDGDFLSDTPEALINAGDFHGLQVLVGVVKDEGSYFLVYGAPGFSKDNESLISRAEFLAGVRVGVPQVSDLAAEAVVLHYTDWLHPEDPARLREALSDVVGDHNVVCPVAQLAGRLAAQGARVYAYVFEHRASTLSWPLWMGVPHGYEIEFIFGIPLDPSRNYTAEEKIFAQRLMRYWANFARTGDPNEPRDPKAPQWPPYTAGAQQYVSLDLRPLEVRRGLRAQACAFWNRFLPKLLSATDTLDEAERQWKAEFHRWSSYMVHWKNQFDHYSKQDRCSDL
quantity kind: pIC50
As a rule, pIC50 stands for the negative log10 of the concentration, concentration in M.

### Prompt Value lookup for pIC50; key = O=C1OCc2cc(-c3ccc(-c4ccc(CO)cc4)s3)ccc21
### Response 5.10

----------
Test: Stability in human plasma incubated for 24 hrs by HPLC analysis
Type: ADME, cell-free
Settings: read-out: Stability
quantity kind: remaining at 24 h (%)
Report only the number, with the unit % understood.

### Prompt # query: remaining at 24 h of entry NC(=O)c1ccc(-c2ccc(-c3ccc4c(c3)COC4=O)s2)cc1
### Response 46

----------
Experiment: Elimination half life in mouse plasma at 10 to 160 mg/kg, po measured for 24 hrs
Type: ADME, organism-based
Settings: dose 10-160 mg/kg, read-out: beta t1/2 (converted)
quantity kind: half-life (h)
Answer format: numeric, h implied, no suffix.

### Prompt State the recorded half-life for this entry: CN1Cc2cc(-c3ccc(-c4cncc(NS(=O)(=O)c5ccccc5[N+](=O)[O-])c4)s3)ccc2C1=O
### Response 2.4

----------
Assay: Toxicity in C57BL/6 mouse assessed as animal survival at 100 mg/kg, po measured for 2 days
Format: organism-based
Settings: in vivo, time 2 day, read-out: Activity
quantity kind: survival at 48 h (%)
Unit % implied. Number only.

### Prompt Look up survival at 48 h: CN1Cc2cc(-c3ccc(-c4cncc(NS(=O)(=O)c5ccccc5[N+](=O)[O-])c4)s3)ccc2C1=O
### Response 100

----------
Test: Mutagenicity in Salmonella typhimurium TA100 by AMES test
Format: toxicity, Salmonella enterica subsp. enterica serovar Typhimurium
quantity kind: IC50
Entry format: amount then unit.

### Prompt Name the recorded IC50 for Cc1cc2c(c(=S)[nH]1)C(=O)O/C2=C\c1ccc(C)o1 .
### Response 3.4 µM
